study system: T1, P6-AA-1HGe-Q
T1 chain: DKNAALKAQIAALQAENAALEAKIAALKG
assay remarks: two-hybrid library CCmax;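 further: natural log of median RNA to DNA barcode read ratio; higher means stronger binding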
condition description: mean of both orientations
Would you kindly list interaction score for each of these binders?
Write the value as a bare number.

What does the data say about its interaction score? Entry: DENAALEASIAALSAKNAALKAEIAALEG [P5-AA-1HGe-S]
2.1

Quick one: DENAALEAWIAALWAKNAALKAEIAALEG [P5-AA-1HGe-W]
2.17

Repeat for the following binder: DENAALEAMIAALMAKNAALKAEIAALEG [P5-AA-1HGe-M]
2.27

How about DENAALEATIAALTAKNAALKAEIAALEG [P5-AA-1HGe-T] ?
2.32

Also DENAALEAAIAALAAKNAALKAEIAALEG [P5-AA-1HGe-A] , if possible.
2.31

Then what about the binder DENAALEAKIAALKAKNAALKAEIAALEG [4H1401-AA] ?
2.02

Input DENAALEAYIAALYAKNAALKAEIAALEG [P5-AA-1HGe-Y]
2.22

Hey, just so you know, these numbers are from paper PMC10397247.
